# measurement_target: Tubulin (Bos taurus, UniProt Q6B856+Q862L2+Q862F3)
# assay_info: Inhibition of bovine brain tubulin assembly preincubated for 15 mins followed by GTP addition measured for 20 mins by spectrophotometry

smiles_str	measurement_target	IC50
COc1ccc(Nc2nc(C)nc3c(Cc4ccccc4)c[nH]c23)c(OC)c1.Cl	Tubulin (Bos taurus, UniProt Q6B856+Q862L2+Q862F3)	> 40 µM
COc1ccc(Nc2nc(C)nc3c(Cc4ccccc4)c[nH]c23)cc1.Cl	Tubulin (Bos taurus, UniProt Q6B856+Q862L2+Q862F3)	> 20 µM
Cc1nc(N(C)c2ccccc2)c2[nH]cc(Cc3ccccc3)c2n1.Cl	Tubulin (Bos taurus, UniProt Q6B856+Q862L2+Q862F3)	> 20 µM
